# Tested on: VDR:RXRa (NR concentration 270 nM, RXRa partner concentration 90 nM)
# procedure summary: PBM binding z-score (relative to random genomic background probes); higher = stronger binding; sequences stand for … in GC…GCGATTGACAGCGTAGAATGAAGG
Output schema: class label derived from PBM binding z-score. Mapping: low: < 0.5; moderate: ≥ 0.5 and < 3; high: ≥ 3

* ACTAGCAGGCCAAGTTTGGGCCACTCAAACAAAG | low
* CCTATTTGTTGACCATAAGGGCAACCGAAGCTCG | moderate
* TCTTGTAGATCATCAGGAGGTTAAGAAAGATCGA | low
* CAAACTAGGTCACCGGATGGTCAAAGTCCGCATG | moderate
* ACTTACGGGTCAACGAGGTTATAGGACGCGTATA | high
* AGTCAAAGTTCATCTAGGCAACGTAAGATATGCT | high
* TGTCAAAGTTCAAAGGTAACATAAGTATCCACAC | high
* CTCGAAAGGTCGTGCTGAGGTGAGTATACCAAAC | high
* CCTTACTGGTCAAGGTTATAGCACGGGTGGTACG | moderate
* ATCGAAAGGTCGAAGGCGAGTATACCCACCCGAA | moderate
* CCTAGCAGGCCAATCAGGGTCACTCAAGGCTTGA | high
* GCAGAGAGGTGAAACGCAGGTAACTCAGGGTGGC | low
* ACTCGGAGGACTAAGGTCAGAGCTACGCCAGTGA | moderate
* CCTAGCAGGCCAGGGTCCCTCAAGCATTTCGCTT | low
* ACAGACAGATGATGAAGGTAACTCAGGCTATCAT | low
* AGAATGAGGTTAATAAGATCAGGGAATTGCGGTC | moderate
* GGAACGAGGGCAAAGTTGTTAGCATCTGTCGACG | moderate
* CCGACTGGGGCAGAAAGGTTACCACACCATCCGG | moderate
* TCCAGTTGGTCAAAGGTCACACACTCGAAATGCG | high
* ATACCAAGGTGATCGTGAGGTCGTTTATACTAAC | high
* ACAGACAGGTGAGTGGAGGTAACTCAGCTGGACG | low
* CCAGACAGGTGCGAAGGTAACTCAGCCTCGATTA | low
* CCTAGTGGGCCAAAAAGGTCATTGATGCCGATAA | high
* CCTAGCAAGCCAATCTGGGTCACTCAAGGCTTGA | low

----------
Quick list: PBM binding z-score per entry.
# System: PXR homodimer (NR concentration 270 nM)
# procedure summary: PBM binding z-score (relative to random genomic background probes); higher = stronger binding; sequences stand for … in GC…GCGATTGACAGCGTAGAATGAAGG
observed property: PBM binding z-score

- ATCTCTAGGTAACCAAGTTCAGTGAATGCCGAAC: 1.98
- CGAACTAGGTCATCCAGGACAGTGAATACATTGA: 1.61
- TCTTGTAGATCAAGCACGTTAAGAAAGCCTGAGT: -0.148
- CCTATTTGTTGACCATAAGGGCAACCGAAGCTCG: 0.998
- GCTTGTAGATCAAGGTTGAGAAAGACTAAGCTAA: -0.235
- GCAGACAGGTGAAACGCAGGTGACTCAGGGTGGC: -0.467
- CAAACTAGGTGACGAAAGGTCAAAGTCGAATGAC: 1.38
- GCGACTGGGGCATCAGCAGGTTCCCATAACTTAA: -0.571
- TCTTGCAGATCAAGCAGGTTAAGAAAGCCTGAGT: -0.285
- AGAATGAGGTTATACGTTGATCAGGGAAGAAAGT: 0.411
- ATCGAAAGGTCGGGAGGTGAGTATACAGAAAGGC: 0.567
- ATCGAAAGGTCGAGGTGAGTACAGAGAAAGGGAA: 0.251
- GCTTACGGGTCATAGGTTATAGCATGAATAGAAT: 0.0944
- CCTAGCAGGCCAGGGTCACTCCAGCATTTCGCTT: -0.229
- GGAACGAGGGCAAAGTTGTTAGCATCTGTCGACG: 0.198
- AGAACGAGGGCCATGAGTTGATAGCACGGGTGGC: -0.232
- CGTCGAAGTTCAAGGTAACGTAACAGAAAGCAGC: 0.897
- CCTCGGAGGACAGAAGGTAAGAGCTGTCCGCTTT: -0.487
- AGAACGAGGACAATGAGTTGATAGCACGGGTGGC: 1.99
- GTGACTGGGGCATCAGCAGGTTACCATAACTTAA: 0.042
- GCTGCTAGGTCAAGTGATGGTCAGCTAAAGCTCG: -0.69
- GGCACGAGGGCATTCGAGTTGATAGCATGGCGAT: 1.72
- GTACCAGGGTGAATAGGTCGTTGATGAGTAGGCG: 0.246
- CAAACTAGGTCAAAGATCAAAGTCGAGCCAACCA: 0.46
- ATACCAAGGTGATCGTGTGGTCGTTGATACTAAC: -0.0663
- TAGCCTAGGTCATGGGCCCGTATACCACGCGAAC: -0.637
- CCTAGCAGGCCAAGCTGGGTCACTCAAGGCTTGA: -0.579
- CATACAGGGTCAGCTAGGCCAGTGTAGGGACGGC: -0.247
- TCGAGTAGGTTACCATTGGGGCATTCAGCTTTCT: -0.677
- GGAACGAGGGCAAAGTTGATAACATCTGTCGACG: 0.336
- CGAACTAGGTCATTGACACGACAGTGAATAGTAA: 0.767
- CGAACTAGGTCAGAACAGGACAGTGATGGATGAT: 0.0168
- ATATCAAGGTGATCGTGAGGTCGTTGATACTAAC: 1.18
- ATCTCTAGGTAAGACTCGGTTCAGTGAAGAACGC: 1.18
- TCATATAGGTAAAAGGTGAAAATCGGTGTGGTAA: 0.321
- TCTAGAAGGCCAGAGGGTCACTCAAGAGGTACGG: 0.0475
- CCTTGTTGGTCAAGGTCACACACGCTATAGGTAC: 1.5
- GCATATAGGTATTACAAGGTGAAAGTCCGATTGT: 0.205
- TCTTATAGATCAACAGGAGGTTAAGAAAGATCGA: 0.0264
- ATCTCTAGGTAATAGTTCAGTGAATCCCGAGGAT: 0.386
- ATCTCTAGGTAACAAGTTGAGTGAAAGAGAGGAC: 0.569
- TCTGATAGGTCAGTTGGTCAGCTAACGAGCTGCC: -0.173
- CCTACTGGTCCACGAAAGGTCATTGATTCAGTGA: 3.24
- CTCGAAAGGTCGGTCGAGGTGAGTATACGGATAA: -0.312
- CCGACTGGGACAAAGGTTACCATACTCAGTACGA: -0.265
- ACTATTAGTTGATACGAGGGCAACCGATAGGTTG: 0.799
- TCAAGTAGGTTACCAATGGGGCATTCAGCTTTCT: -0.278
- TCAAACAGGTGAAGGTAACTCAGGTACGCAGTCG: 0.0874
- GCGACTGGGGCAAAGCTGGTTACCATAAGGTTGG: -0.799
- GTACCTAGGTGAATAGGTCGTTGATGAGTAGGCG: -0.195
- ATCGAAAGGCCGTGAGGTGAGTATACAGAAAGGC: -0.0636

----------
# Tested on: RARa:RXR (NR concentration 270 nM, RXRa partner concentration 90 nM)
# procedure summary: PBM binding z-score (relative to random genomic background probes); higher = stronger binding; sequences stand for … in GC…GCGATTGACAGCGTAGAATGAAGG
Quick list: PBM binding z-score per entry.
observed property: PBM binding z-score

* CAAACTAGGTCCAGGTCAAAGTCGGTTTGTGCCA | 2.22
* GGAACGAGGGCATTCGAGTTGATGGCATGGCGAT | 0.115
* TCTAGCAGGGCAGAGGGTCACTCAAGAGGTACGG | 2.42
* CCGACTGGGGCATAAAGGTTACCATACCATCCGG | 1.83
* GCGACTGGGGCAAAGCAGGTAACCATAAGGTTGG | 0.385
* CGAACTAGGTCATTGACAGGACGGTGAATAGTAA | 1.81
* CCGACTGGGGCATAATGTTACCATAAGCCAGCCC | -0.283
* CAAACTAGGTCCAGAGGTCAAAGTCCGCTTCCCG | 5.5
* CCGAGTAGGTTATGGGGCGTTCAGGCAACGGTGA | 0.233
* AGAATGAGGTTATACGGAGATCAGGGAAGAAAGT | 1.74
* GCTAGTTGGTCAGTAAAAGGTCACACATCGGTCG | 5.23
* AGTCAAAGTTCATCTAGGTACCGTAAGATATGCT | 3.85
* CAAACTAGGTCAAGGTCAAGGTCGGTTTGTGCCA | 5.61
* TCTGCTAGGTCGACGATGGTCAGCTAATCTGCTA | 0.0229
* CCTCGGAGGACAACAGGAGGCCAGAGCTGCCAGA | -0.45
* CCGACTGGGGCTGAAAGGTTACCATACCATCCGG | 1.85
* TCTAGTTGGACAAAGGTCACACACTCGAAATGCG | 6.59
* ATCTCTAGGTGAGACTCAGTTCAGTGAAGAACGC | 0.361
* CCTACTAGGTCATGGTCAGCTAATCTACAGTATG | 2.45
* TCTTGTAGATCAACAGGAGGTTAAGAACGATCGA | 0.889
* TCTTGTAGATCAAGAGAGGTTAAGAAAGTGCGCT | 1.6
* CGTCCAAGGTTAGCAGGTCAGTGAAAGCGACGTG | 2.01
* GCTGCTAGGTCAGGTTGGTCAGCTAGCGGGTACG | 0.604
* CGAATGAGGGCATGAGTTGATAGCAAATGCCGAT | 0.61
* CCTACTGGGCGAAAGGTCATTGATTCCAATGCTC | 5.57
* CAAACTAGGGCACCGGAAGGTCAAAGTCCGCATG | 4.68
* AGTCAAAGTTCATCTACGTAACGTAAGATATGCT | 3.51
* AGAATGAGGTTAAAATCAGGGAAACAGAATACAT | 1.9
* CCTAGTTGGTCAAAGTCACACACGCTATAGGTAC | 0.303
* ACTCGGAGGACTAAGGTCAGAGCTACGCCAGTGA | 2.92
* TAGCCTAGGTCATGCGGGCCAGTACAGTGTCGGC | 2.47
* CCTACTGGGCCATCAGGTCATGGATATCAACGTT | 2.45
* ACTAGTTGGTCAGCCGAGGTCACACACAATTCGG | 5
* GCTTGTAGATCAAGGTTAAGAGAGACTAAGCTAA | 0.668
* GCATACAGGTGAAACGCAGGTAACTCAGGGTGGC | 0.243
* CAAACTCGGTCACAGAGGTCAAAGTCCGTGCGTA | 6.39
* GCTAGTTGGACAGTAAAAGGTCACACACCGGTCG | 5.53
* GCGACTGGGGCAAAGCAAGTTACCATAAGGTTGG | 0.375
* CTACCAAGGTGAACAACGTCGTTGATTACTATTC | 0.739
* CCTACTGGGCCAAAAAAGTCATTGATGCCGATAA | -0.0727
* ATCGAAAGGTCGTGAGGTGAGGATACAGAAAGGC | 4.61
* CGAACGAGGACATGAGTTGATAGCAAATGCCGAT | -0.232
* CCTACTGGGCCATCAGGTCATTGATATCAACGTT | 1.65
* CCTACTGGGCCAAAGCTCATTGATTCCAATGCTC | -0.318
* GCTCGGAGGACAAGGACAGAGCTTTGTCCGTAGA | -0.421
* TCATATAGGTAAAAGGTGAAAGTCGGTGTGGTAA | 3.73
* TCTTGTAGATGAGCAGGTTAAGAAAGCTGGCCAA | 0.211
* AGAATGAGGCTATTAAGATCAGGGAATTGCGGTC | -0.197
* TCTTGTAGATCATCAGGTTAAGAAAGCTGGCCAA | 0.63
* TGTCAAAGTTCAACGGTAACGTAAGTATCCACAC | 4.08
* CATACAGGGTCAGCTAGCCCAGAGTAGGGACGGC | 3.11
